# PROTOCOL DETAILS: Cytotoxicity against human Bel7404 cells after 72 hrs by MTT assay
# Type: functional, cell-based
# SETUP CONDITIONS: BEL-7404, 72 h
Here, each record is paired with measured IC50 data.

# annotated cases, reported IC50 shown
• COc1cc(/C=C/COC(=O)/C=C/c2cc(OC)c(OC)c(OC)c2)cc(OC)c1OC = > 100 µg/mL
• O=C(/C=C/c1ccc(O)cc1)OC/C=C/c1ccccc1 = > 100 µg/mL

// field: IC50; key: COc1ccc(/C=C/C(=O)OC/C=C/c2ccc(OC)c(OC)c2)cc1 ; value = > 100 µg/mL

The reported IC50 of the compound COCOc1ccc(/C=C/C(=O)OC/C=C/c2ccc(OC)cc2)cc1 was > 100 µg/mL

---

# Tested on: HeLa
# PROTOCOL DETAILS: Cytotoxicity against human HeLa cells after 72 hrs by MTT assay
# Type: functional, cell-based
Readings of IC50 for the listed compounds
# value in µM; strip the unit string

Entry COc1ccc(/C=C/C(=O)OC/C=C/c2ccc(OC)c(OC)c2)cc1 ; IC50 = 167

Entry COc1ccc(/C=C/COC(=O)/C=C/c2ccc(O)cc2)cc1 , IC50 reported as 95

Form field IC50, entry COCOc1ccc(/C=C/C(=O)OC/C=C/c2ccc(OC)cc2)cc1 : 46

---

Quick reference for IC50 among some compounds
# PROTOCOL DETAILS: Inhibition of alpha glucosidase

Reference set (3 entries):
- O=C(CCc1ccc(O)c(O)c1)OCCCc1ccccc1: 73 µM
- C[C@H]1O[C@H](O[C@H]2[C@H](O)[C@@H](O)[C@@H](O[C@H]3[C@H](O)[C@@H](O)C(O)O[C@@H]3CO)O[C@@H]2CO)[C@H](O)[C@@H](O)[C@@H]1N[C@H]1C=C(CO)[C@@H](O)[C@H](O)[C@H]1O (stereo not given in full): 680 µM
- COc1cc(/C=C/COC(=O)/C=C/c2cc(OC)c(OC)c(OC)c2)cc(OC)c1OC: 110 µM

Reported IC50 of O=C(/C=C/c1ccc(O)c(O)c1)OC/C=C/c1ccccc1 : 97 µM

Lab note: measured IC50 of O=C(/C=C/c1ccc(O)cc1)OC/C=C/c1ccccc1 was 65 µM

---

# PROTOCOL DETAILS: Cytotoxicity against human Bel7404 cells after 72 hrs by MTT assay
# Type: functional, cell-based
# SETUP CONDITIONS: BEL-7404, 72 h
MEASURED ENDPOINT: IC50 (µM)
// units = µM; emit number, no label

Consider the following illustrative entries.
• COc1ccc(/C=C/COC(=O)/C=C/c2ccc(OC)c(OC)c2)cc1OC = 136
• O=C(/C=C/c1ccc(O)c(O)c1)OC/C=C/c1ccccc1 = 91
• COc1ccc(/C=C/COC(=O)/C=C/c2ccc(O)cc2)cc1 = 193
• COc1ccc(CCCOC(=O)CCc2ccc(O)cc2)cc1 = 108

Turning to the following compound.
The recorded IC50 for COc1ccc(/C=C/COC(=O)/C=C/c2cc(OC)c(OC)c(OC)c2)cc1OC is 212

---

// values below are reported IC50
# Tested on: HeLa
# PROTOCOL DETAILS: Cytotoxicity against human HeLa cells after 72 hrs by MTT assay
# Assay type: functional, cell-based
Express it in µM; write the number only.

- O=C(/C=C/c1ccc(O)cc1)OC/C=C/c1ccccc1: 160
- COc1ccc(/C=C/COC(=O)/C=C/c2cc(OC)c(OC)c(OC)c2)cc1OC: 64
- COc1ccc(/C=C/COC(=O)/C=C/c2ccc(OC)c(OC)c2)cc1OC: 86.7
- O=C(CCc1ccc(O)c(O)c1)OCCCc1ccccc1: 171
- COc1cc(/C=C/COC(=O)/C=C/c2cc(OC)c(OC)c(OC)c2)cc(OC)c1OC: 43

Below: the item to evaluate.
IC50 measured on O=C(/C=C/c1ccc(O)c(O)c1)OC/C=C/c1ccccc1 = 171

---

IC50 reference
# Tested on: HeLa
# PROTOCOL DETAILS: Cytotoxicity against human HeLa cells after 72 hrs by MTT assay
# Format: functional, cell-based

• COc1ccc(/C=C/COC(=O)/C=C/c2ccc([N+](=O)[O-])cc2)cc1OC = > 100 µg/mL
• COc1ccc(CCCOC(=O)CCc2ccc(O)cc2)cc1 = > 100 µg/mL
• COc1ccc(CCCOC(=O)CCc2cc(OC)c(OC)c(OC)c2)cc1OC = > 100 µg/mL

Could you now look at the following compound, please?
Lab book: IC50 of COCOc1ccc(/C=C/C(=O)OC/C=C/c2ccccc2)cc1OCOC noted as > 1000 µM
